System: NOMO1
method_summary: cell viability relative to DMSO control; higher = less cytotoxic
test_settings: RPMI 5 mM glucose + 10% dialyzed FBS; 48 h; 0.0632 µM
property_label: cell viability (%)

molecule: CC(C)c1ccc2c(c1)c(SC(C)(C)C)c(CC(C)(C)C(=O)[O-])n2Cc1ccc(Cl)cc1
meas_value: 81.5
//
molecule: CC(C)c1noc(N2CCC(COc3ccc(-c4ccc([S+](C)(=O)[O-])cc4)nc3)CC2)n1
meas_value: 117
//
molecule: O=C1NC(=O)/C(=C/c2ccc3nccc(-c4ccncc4)c3c2)S1
meas_value: 88
//
molecule: ClC1=CC=C(C=C1)C(C#N)C2=C(Cl)C=C(C=C2Cl)N3\N=C/C(=O)NC3=O (configuration not stated)
meas_value: 87.1
//
molecule: COc1ccc([C@@H]2CC(=O)c3c(O)cc(O[C@@H]4O[C@H](CO[C@@H]5O[C@@H](C)[C@H](O)[C@@H](O)[C@H]5O)[C@@H](O)[C@H](O)[C@H]4O)cc3O2)cc1O
meas_value: 110
//
molecule: Cc1onc(-c2ccccc2Cl)c1C(=O)N[C@@H]1C(=O)N2[C@@H]1SC(C)(C)[C@@H]2C(=O)[O-]
meas_value: 111
//
molecule: Nc1ncnc2c1ncn2[C@@H]1O[C@@H](CO)[C@H](O)[C@@H]1O
meas_value: 135
//
molecule: C[C@H]1C[C@@H]2[C@H](CC[C@@]3(C)[C@H]2CC[C@]3(OC(C)=O)C(C)=O)[C@@]\4(C)CCC(=O)\C=C14
meas_value: 101
//
molecule: C[C@]12CCC(=O)C=C1CC[C@@H]1[C@@H]2[C@@H](O)C[C@@]2(C)[C@H]1CC[C@]2(O)C(=O)CO
meas_value: 116
//
molecule: CC[C@H](/C=C/[C@@H](C)[C@H]1CC[C@H]2[C@@H]3CC=C4C[C@@H](O)CC[C@]4(C)[C@H]3CC[C@]12C)C(C)C
meas_value: 96.1
//
molecule: CNC(=O)c1ccc(N2C(=S)N(c3cnc(C#N)c(C(F)(F)F)c3)C(=O)C23CCC3)cc1F
meas_value: 99.1
//
molecule: CN[C@@H](C)[C@H]1[C@H](O)C[C@@]2(C)[C@@H]3CC[C@H]4C(C)(C)[C@@H](NC)CC[C@@]45C[C@@]35CC[C@]12C
meas_value: 104

###

Test system: P12-Ichikawa
method_summary: cell viability relative to DMSO control; higher = less cytotoxic
test_settings: RPMI 5 mM glucose + 10% FBS; 48 h; 15.4 µM
Measured cell viability accompanies every entry in the list below.

compound: CN[C@H]1CCC2=CC(=C(OC)C(=C2C/3=C/C=C(OC)\C(=O)/C=C13)OC)OC
measurement_units: %
cell viability: 6.54
--
compound: c1ccc(CCCN2CCN(CCOC(c3ccccc3)c3ccccc3)CC2)cc1
measurement_units: %
cell viability: 78.4
--
compound: O=C(O)C1(Cc2cccc(Nc3nccs3)n2)CCC(Oc2cccc(Cl)c2F)CC1 (configuration not stated)
measurement_units: %
cell viability: 33.9
--
compound: Cc1c(C)n(Cc2ccc(-c3ccccc3C(=O)O)cc2)c2ccc(C(=O)N[C@@H](C)c3ccc([N+](=O)[O-])cc3)cc12
measurement_units: %
cell viability: 25.2
--
compound: CC(C)c1noc(N2CCC(COc3ccc(-c4ccc([S+](C)(=O)[O-])cc4)nc3)CC2)n1
measurement_units: %
cell viability: 113
--
compound: COc1ccc(-c2ccc3ncc4c(c3c2)n(-c2ccc(N3CCNCC3)c(C(F)(F)F)c2)c(=O)n4C)cn1
measurement_units: %
cell viability: 4.14
--
compound: O=C(Nc1cccc(C(F)(F)F)c1)Nc1cc([S+](=O)([O-])NC2CC2)ccc1-c1ccsc1
measurement_units: %
cell viability: 110
--
compound: CNCC(O)c1ccc(O)cc1 (configuration not stated)
measurement_units: %
cell viability: 131
--
compound: Cc1nc2cnc3ccc(C#Cc4cccnc4)cc3c2n1-c1ccc(C(C)(C)C#N)cc1
measurement_units: %
cell viability: 40.6
--
compound: OC[C@H]1O[C@H]([C@H](O)[C@@H]1O)N2\C=C/C(=O)NC2=O
measurement_units: %
cell viability: 96
--
compound: CC(C)c1nc(CN(C)C(=O)N[C@H](C(=O)N[C@@H](Cc2ccccc2)C[C@H](O)[C@H](Cc2ccccc2)NC(=O)OCc2cncs2)C(C)C)cs1
measurement_units: %
cell viability: 79.8
--
compound: Cc1ccccc1C(=O)c1ccc(Nc2ccc(Br)cc2N)cc1Cl
measurement_units: %
cell viability: 108
--
compound: CN(C)C1CCN(C(=O)c2ccc(NC(=O)Nc3nc(N4CCOCC4)nc(N4CCOCC4)n3)cc2)CC1
measurement_units: %
cell viability: 34.7
--
compound: Cc1onc(-c2ccccc2Cl)c1C(=O)N[C@@H]1C(=O)N2[C@@H]1SC(C)(C)[C@@H]2C(=O)[O-]
measurement_units: %
cell viability: 101
--
compound: C[S+](=O)([O-])Nc1ccc([N+](=O)[O-])cc1Oc1ccccc1
measurement_units: %
cell viability: 112
--
compound: C[C@@H](Oc1cc(-c2cnn(C3CCNCC3)c2)cnc1N)c1c(Cl)ccc(F)c1Cl
measurement_units: %
cell viability: 68.9
--
compound: C[C@H](NC(=O)c1sccc1OCc1ccc(Cl)cc1)c1ccccc1
measurement_units: %
cell viability: 83.5

###

Measured cell viability of individual entries
System: P12-Ichikawa
method_summary: cell viability relative to DMSO control; higher = less cytotoxic
test_settings: RPMI 5 mM glucose + 10% FBS; 48 h; 0.19 µM

smiles_entry: CN[C@H]1CCC2=CC(=C(OC)C(=C2C/3=C/C=C(OC)\C(=O)/C=C13)OC)OC
cell viability: 13.3%
--
smiles_entry: CC(C)c1nc(CN(C)C(=O)N[C@H](C(=O)N[C@@H](Cc2ccccc2)C[C@H](O)[C@H](Cc2ccccc2)NC(=O)OCc2cncs2)C(C)C)cs1
cell viability: 92.6%
--
smiles_entry: CC(C)(C)OC(=O)N[C@H]1CCCCC/C=C\[C@@H]2C[C@@]2(C(=O)N[S+](=O)([O-])C2CC2)NC(=O)[C@@H]2C[C@@H](OC(=O)N3Cc4cccc(F)c4C3)CN2C1=O
cell viability: 112%
--
smiles_entry: COC(=O)Nc1cc(Nc2cc(NC3CC3)c3ncc(C#N)n3n2)c(Cl)c(N2CCN(C)CC2)c1
cell viability: 108%
--
smiles_entry: c1ccc2[nH]c(-c3cscn3)nc2c1
cell viability: 120%
--
smiles_entry: CC(C)(C#N)c1cc(Cn2cncn2)cc(C(C)(C)C#N)c1
cell viability: 124%
--
smiles_entry: CN1CCN(C2=Nc3cc(Cl)ccc3Nc3ccccc32)CC1
cell viability: 125%
--
smiles_entry: C[N]1C=C(C=N1)C2=C3\C=N/NC(=O)C4=C3C(=CC(=C4)NC(=O)[C@H](N)C5CCCCC5)[NH]2
cell viability: 98.5%
--
smiles_entry: OC[C@@H](O)[C@@H](O)[C@H](O)[C@@H](O)CO
cell viability: 126%

###

Tested on: SEM cells
method_summary: cell viability relative to DMSO control; higher = less cytotoxic
test_settings: HPLM + 10% dialyzed FBS; 48 h; 0.0211 µM

compound: CC1=C(C)C(=O)C(C(CCCCCC(=O)O)c2ccccc2)=C(C)C1=O (stereo unspecified)
cell viability, %: 69.2

compound: NC\1=N\C(=O)N(\C=C1)[C@@H]2O[C@H](CO)[C@@H](O)[C@@H]2O
cell viability, %: 15.7

compound: CNCCCC12CCC(c3ccccc31)c1ccccc12
cell viability, %: 99.7

compound: O=C(O)CCC1CCC(c2cc(F)ccc2F)([S+](=O)([O-])c2ccc(Cl)cc2)CC1 (stereo unspecified)
cell viability, %: 114

compound: CC1(C)O[C@@H]2C[C@H]3[C@@H]4C[C@H](F)C5=CC(=O)C=C[C@]5(C)[C@@]4(F)[C@@H](O)C[C@]3(C)[C@]2(C(=O)CO)O1
cell viability, %: 83.5

compound: CNC(=O)c1c(-c2ccc(F)cc2)oc2cc(N(CCO)[S+](C)(=O)[O-])c(C3CC3)cc12
cell viability, %: 110

compound: C/C=C/C/C=C/CCC(=O)[C@H]1O[C@H]1C(N)=O
cell viability, %: 123

compound: Nc1ncnc2c1ncn2[C@@H]1O[C@@H](CO)[C@H](O)[C@@H]1O
cell viability, %: 119

compound: CC(C)C1NC(=O)C(NC(=O)C2=C3\N=C\4/C(=C(C)\C(=O)\C(=C4C(=O)NC5C(C)OC(=O)C(C(C)C)N(C)C(=O)CN(C)C(=O)C6CCCN6C(=O)C(NC5=O)C(C)C)N)OC3=C(C)C=C2)C(C)OC(=O)C(C(C)C)N(C)C(=O)CN(C)C(=O)C7CCCN7C1=O (stereo unspecified)
cell viability, %: 7.17

compound: OC[C@H]1O[C@H]([C@H](O)[C@@H]1O)N2\C=C/C(=O)NC2=O
cell viability, %: 115

compound: CC(C)(O)CC[C@@H](O)[C@](C)(O)[C@H]1CC[C@@]2(O)C/3=C/C(=O)[C@@H]4C[C@@H](O)[C@@H](O)C[C@]4(C)[C@H]3CC[C@]12C
cell viability, %: 97.8

compound: O=C(NCC1CCCCN1)c1cc(OCC(F)(F)F)ccc1OCC(F)(F)F (stereo unspecified)
cell viability, %: 128

compound: COC(=O)Nc1nc2cc(C(=O)c3ccccc3)ccc2[nH]1
cell viability, %: 126

compound: C[C@]12CC[C@H]3[C@@H](CC[C@H]4NC(=O)\C=C/[C@]34C)[C@@H]1CC[C@@H]2C(=O)NC5=CC(=CC=C5C(F)(F)F)C(F)(F)F
cell viability, %: 117

compound: S=C(NCc1ccc2c(c1)OCO2)N1CCN(c2ncnc3c2oc2ccccc23)CC1
cell viability, %: 100

compound: Cc1cc(Nc2cc(NC(=O)c3c(Cl)cccc3Cl)ccn2)nc(N)n1
cell viability, %: 124
